The reported measurements were obtained from PubChem BioAssay (NCI).

- Tested on: BT-549 breast
- ASSAY DETAILS: NCI tumour cell line growth inhibition, 48 h
EXPERIMENTAL ENDPOINT: log10 of TGI (log10 of the value in µM)
Recorded TGI (log10, µM)

SMILES DATA | ASSAY SYSTEM | log10 of TGI
COc1ccc(OC)c(/C=N/NC(=O)Cc2csc3nc(-c4ccc(Br)cc4)cn23)c1 | BT-549 breast | 1.53

Provide log10 of TGI for all items below, preserving their order.
1. COc1cc(NS(C)(=O)=O)ccc1Nc1c2ccc([N+](=O)[O-])cc2nc2c(C)cccc12
2. O=C(O)c1cc2ccccc2c(N=Nc2ccccc2)c1O
3. Nc1ccc2c(c1)C(=O)C(=O)c1c-2nc2ccccn12
4. CO/N=C(\C)c1ccc(Nc2c3ccccc3nc3occc23)cc1

Reply:
1. 0.87
2. 1.65
3. 0.45
4. 1.33

---

- Test system: NCI-H226 lung
- ASSAY DETAILS: NCI tumour cell line growth inhibition, 48 h
EXPERIMENTAL ENDPOINT: TGI

Example cases with answers are listed next.
COMPOUND | ASSAY SYSTEM | VAL
COc1cc(/C=C/c2ccncc2)cc(OC)c1OC | NCI-H226 lung | > 100 µM
COc1ccccc1/C=C(\C#N)c1ccccc1 | NCI-H226 lung | > 100 µM
Cc1ccc2c3c1O[C@H]1c4[nH]c5ccccc5c4C[C@@]4(O)[C@@H](C2)N(C)CC[C@]314 | NCI-H226 lung | 23.1 µM

Give TGI for each of the items listed below.
1. CC(=O)N[C@@H](Cc1ccc(OP(=O)(O)O)cc1)C(=O)N[C@H]1CCC(=O)N2CCC[C@@H](C(=O)NCc3ccc(Cl)cc3)N2C1=O
2. COc1ccc(/C=C2\CCC(C)C3=C(c4ccc(OC)c(OC)c4)C(C#N)=C(N)OC32)cc1OC (stereo not given)
3. CN1N=CSC12C(=O)N(c1ccc(Cl)cc1)C(=O)N2c1ccc(Cl)cc1 (stereo not given)
4. O=C(O)CCNc1ccccc1C(=O)O
5. CC(=O)OC12/C(=N/O)CCCCCC1c1ccccc12 (stereo not given)
6. CCCCCCCC1C(C)c2c([nH]c3ccccc23)C2C(=O)N(c3ccc(OC)cc3)C(=O)C21 (stereo not given)
7. N#Cc1c(-c2ccccc2)nc(SCC2CO2)nc1N1CCOCC1 (stereo not given)

Reply:
["> 25 µM", "9.83 µM", "8.66 µM", "> 100 µM", "> 100 µM", "> 8.21 µM", "> 100 µM"]

---

Provide the reported TGI of each item.
- Test system: K-562 leukemia
- ASSAY DETAILS: NCI tumour cell line growth inhibition, 48 h

The cases that follow already have their TGI on record.
MOLECULE | ASSAY SYSTEM | VAL
C=C1C(=O)O[C@H]2[C@H]1CC/C(CNC(=O)Cc1c[nH]c3ccccc13)=C\CC[C@@]1(C)O[C@@H]21 | K-562 leukemia | 11.1 µM
CC1(C)CC(=O)C(CCC(=O)/C=C/c2ccccc2)C(=O)C1 | K-562 leukemia | > 100 µM
Cc1cc(N(CCC#N)CCC#N)ccc1/C(N=Nc1ccc(Cl)cc1)=N\NC(=O)c1cc(Cl)ccc1O | K-562 leukemia | > 100 µM
COc1ccc(C(=O)c2cc(OC)c(OC)c(OC)c2)cc1 | K-562 leukemia | > 100 µM
CN(C)c1ccc2c(=O)c3ccccc3oc2n1 | K-562 leukemia | > 100 µM

Fill in TGI for each of the 5 molecules listed.
1. CCOC(=O)c1ccc2[nH]c(-c3ccc(S(=O)(=O)F)cc3)cc(=O)c2c1
2. CS(=O)(=O)c1ccc(/C=N/NC(N)=S)cc1
3. CCOC(=O)NC(Nc1ncccn1)(C(F)(F)F)C(F)(F)F
4. CC[C@]1(O)CC(OC2CC(N(C)C)C(O)C(C)O2)c2c(cc3c(c2O)C(=O)c2c(O)cccc2C3=O)[C@@H]1C(=O)OC (stereo partly drawn)
5. Clc1ccc(CSC(Cn2ccnc2)c2ccc(Cl)cc2Cl)cc1 (stereo not drawn)

Reply:
1: > 100 µM; 2: > 100 µM; 3: > 100 µM; 4: 0.982 µM; 5: 4.81 µM

---

- Tested on: DU-145 prostate
- ASSAY DETAILS: NCI tumour cell line growth inhibition, 48 h
EXPERIMENTAL ENDPOINT: GI50

Worked set:
SMILES DATA | ASSAY SYSTEM | VAL
CCOC(=O)c1c2c(c(O)c3ccccc3c(O)n(Cc3ccc(OC)cc3)c1C)C(=O)C=CC2=O | DU-145 prostate | > 100 µM
CCNC(=O)[C@@H]1CCCN2C(=O)CC[C@H](NC(=O)[C@H](Cc3ccc(OP(=O)(O)O)cc3)NC(C)=O)C(=O)N12 | DU-145 prostate | > 25 µM
Nc1ccc2c(c1)C(=O)C(=O)c1c-2nc2ccccn12 | DU-145 prostate | 0.556 µM

Could you report GI50 for every entry in the following list?
1. FC(F)(F)c1nc(N2CCCC2)ncc1-c1nnnn1-c1ccc(Cl)cc1
2. Nc1c(C(=O)c2cccc(CCCN3CCOCC3)c2)cnn1-c1ccc(F)cc1

Reply:
1. 48.4 µM
2. > 25 µM

---

- Test system: HOP-62 NSCLC
- ASSAY DETAILS: NCI tumour cell line growth inhibition, 48 h
EXPERIMENTAL ENDPOINT: TGI

I would be grateful if you could provide TGI for each of the following entries.
1. FC(F)(F)Oc1cccc(-c2cnc3ccc(-c4ccncc4)nn23)c1
2. CCCCCCCC1C(C)c2c([nH]c3ccccc23)C2C(=O)N(c3ccc(OC)cc3)C(=O)C21 (stereo not given)
3. C=CCOC(=O)N1[C@H]2C#C/C=C\C#C[C@]3(O)C(=O)C[C@H](C)[C@]24O[C@]43C2=CC(=O)C=CC21OC (stereo not given in full)
4. COc1cc2c(cc1OC)-c1cc3ccccc3c[n+]1CC2
5. CCOC(=O)c1cnn2c1ncc1c(=O)n(NC(N)=O)ccc12

Reply:
["> 100 µM", "> 7.78 µM", "> 100 µM", "> 100 µM", "> 100 µM"]

---

- Test system: A549 NSCLC
- ASSAY DETAILS: NCI tumour cell line growth inhibition, 48 h
EXPERIMENTAL ENDPOINT: TGI

Some solved entries appear below for comparison.
COMPOUND | TGI
COc1cc(/C=C/c2ccncc2)cc(OC)c1OC | > 100 µM
O=P1(O)C=CC2(CCCC2)O1 | > 100 µM
COc1ccc(OC)c(/C=N/NC(=O)Cc2csc3nc(-c4ccc(Br)cc4)cn23)c1 | 38.7 µM
CCOC(=O)c1cnn2c1ncc1c(=O)n(NC(N)=O)ccc12 | > 100 µM
Cc1ccc(S(=O)(=O)OC2CCN(C)CC2)cc1 | > 100 µM

Hey, quick one: what's TGI for each of these?
1. CC(C)(C)c1cc(CC2C(=O)c3ccccc3C2=O)cc(C(C)(C)C)c1O
2. COc1ccccc1/C=C/C1=NN(c2cccc(S(=O)(=O)O)c2)C2(C1)SCC(=O)N2c1nc2ccccc2s1 (stereo unspecified)
3. O=C(OCc1ccccc1CN1CCOCC1)c1cccc(Br)c1
4. O=C(Nc1c(O)[nH]c(=S)[nH]c1=O)c1ccccc1F

Reply:
87.2 µM
> 100 µM
> 100 µM
> 100 µM

Below are some compounds; for each one, tell me its TGI.
1. Cc1cn(Cc2ccccc2CCO)c(=S)[nH]c1=O
2. CCOC(=O)c1ccc(Nc2cnc3cc(C(F)(F)F)ccc3n2)cc1

Reply:
["> 100 µM", "> 100 µM"]

---

Would you kindly list TGI for each of these compounds?
- Tested on: BT-549 breast
- ASSAY DETAILS: NCI tumour cell line growth inhibition, 48 h
Answers are plain numbers, in µM.

COMPOUND | TGI [µM]
COc1ccc2nc3cc(Cl)ccc3c(NCCCN(Cc3cc(OC)c(OC)c(OC)c3)Cc3cc(OC)c(OC)c(OC)c3)c2c1 | 28

Hello, I would appreciate it if you could give TGI for each entry below.
1. COC(=O)CCC(=O)C(=O)OC
2. COC(=O)[C@@]12C(=O)C=CC(=O)[C@@H]1C1C(=CC2COC(C)=O)O[C@@H]2OC3(CCCCC3)O[C@H]12 (stereo not given in full)

Reply:
1. 96200
2. 26

---

What GI50 was measured for each of the following?
- Test system: RXF 393 renal
- ASSAY DETAILS: NCI tumour cell line growth inhibition, 48 h

Return reported GI50 values for all items listed beneath this line.
1. O=C(NC1CCN(Cc2ccccc2)CC1)c1cc(-c2ccncc2)nc2ccc(Cl)cc12
2. CC12CCC3C(CCC4Cc5[nH]c6ccccc6c5CC43C)C1CCC2O (stereo not given)

Reply:
1. 5480 nM
2. 738 nM
